- ASSAY_SUMMARY: In vitro binding affinity against alpha-2D adrenergic receptor of male Wistar rat
OUTCOME_MEASURE: pKi
Kindly note that pKi refers to -log10 of the concentration in mol/L and answer with the value alone.

[Q] Read off the recorded pKi for Clc1cc(Cc2cnc[nH]2)c(Cl)s1
[A] 10.06

[Q] Read off the recorded pKi for Cc1cscc1Cc1cnc[nH]1
[A] 9.33

[Q] Read off the recorded pKi for Cc1ccsc1Cc1cnc[nH]1
[A] 9.35

[Q] Read off the recorded pKi for CCc1cscc1Cc1cnc[nH]1
[A] 9.54

[Q] Read off the recorded pKi for CCC(c1cnc[nH]1)c1sccc1C (configuration not stated)
[A] 8.08

[Q] Read off the recorded pKi for CC(C)c1cc(Cc2cnc[nH]2)c(C(C)C)s1
[A] 7.92

[Q] Read off the recorded pKi for Cc1ccsc1C1(c2cnc[nH]2)CC1
[A] 6.00

[Q] Read off the recorded pKi for Cc1ccc(Cc2cnc[nH]2)s1
[A] 8.44

---
[Q] Read off the recorded pKi for c1ncc(Cc2ccsc2)[nH]1
[A] 8.51

[Q] Read off the recorded pKi for Cc1sccc1Cc1cnc[nH]1
[A] 9.36

* * *

- ASSAY_SUMMARY: In vitro binding affinity against alpha-2D adrenergic receptor of male Wistar rat
OUTCOME_MEASURE: pKi
Kindly note that pKi refers to -log10 of the concentration in mol/L and answer with the value alone.

Here's what some known entries look like.
[Q] Read off the recorded pKi for c1csc(Cc2cnc[nH]2)c1
[A] 8.06

[Q] Read off the recorded pKi for Cc1csc(Cc2cnc[nH]2)c1C
[A] 9.77

[Q] Read off the recorded pKi for Cc1cc(Cc2cnc[nH]2)c(C)s1
[A] 9.16

[Q] Read off the recorded pKi for c1ncc(Cc2cc3c(s2)CCCC3)[nH]1
[A] 8.43

[Q] Read off the recorded pKi for Cc1csc(C)c1Cc1cnc[nH]1
[A] 10.00

[Q] Read off the recorded pKi for Brc1ccsc1Cc1cnc[nH]1
[A] 9.46

[Q] Read off the recorded pKi for CCc1cc(Cc2cnc[nH]2)c(CC)s1
[A] 9.40

[Q] Read off the recorded pKi for Cc1csc(C(C)c2cnc[nH]2)c1C (stereo not given)
[A] 9.12

[Q] Read off the recorded pKi for COC(c1cnc[nH]1)c1sccc1Br (stereo not given)
[A] 7.41

[Q] Read off the recorded pKi for Cc1cccc([C@H](C)c2cnc[nH]2)c1C
[A] 10.82

---
[Q] Read off the recorded pKi for CCC(c1cnc[nH]1)c1cscc1C (stereo not given)
[A] 9.01

[Q] Read off the recorded pKi for CCc1sccc1Cc1cnc[nH]1
[A] 10.15

[Q] Read off the recorded pKi for CC(c1cnc[nH]1)c1scc(Br)c1Br (stereo not given)
[A] 9.37

[Q] Read off the recorded pKi for CCc1cscc1C(C)c1cnc[nH]1 (stereo not given)
[A] 9.55

[Q] Read off the recorded pKi for Cc1sccc1C(C)c1cnc[nH]1 (stereo not given)
[A] 8.64

* * *

In this section, each of the compounds is paired with its reported Ki.
- ASSAY_SUMMARY: In vitro binding affinity against alpha-2D adrenergic receptor of male Wistar rat
// return numeric value only (unit: pM, not printed)

Here's what some known entries look like.
[Q] Read off the recorded Ki for COC(c1cnc[nH]1)c1cscc1C (configuration not stated)
[A] 15900

[Q] Read off the recorded Ki for CC(c1cnc[nH]1)c1cscc1Br (configuration not stated)
[A] 80

[Q] Read off the recorded Ki for Brc1cscc1Cc1cnc[nH]1
[A] 230

[Q] Read off the recorded Ki for Cc1cscc1C(C)c1cnc[nH]1 (configuration not stated)
[A] 390

[Q] Read off the recorded Ki for Brc1csc(Cc2cnc[nH]2)c1Br
[A] 70

---
[Q] Read off the recorded Ki for c1ccc2c(Cc3cnc[nH]3)csc2c1
[A] 90

[Q] Read off the recorded Ki for c1ccc2sc(Cc3cnc[nH]3)cc2c1
[A] 1100
